property-label: melting point

Please look at this molecule and report its melting point: Cc1c(C)n(CC2CC2)c2c(OCc3ccc(F)cc3)nncc12
137 to 138 °C

Report melting point, nothing else, for this molecule: CC(c1ccc(-c2ccccc2)c(F)c1)c1nc(CN2CCOCC2)no1 (stereo not given)
91.5 to 92.5 °C

Find the measured melting point of CC(=O)Nc1c([N+](=O)[O-])cc(Br)c2c1CN(C(C)=O)CC2 and report it.
173 to 175 °C

Entry C=CCNC(=O)N(O)Cc1c(C)n(C(=O)c2ccc(Cl)cc2)c2ccc(OC)cc12 needs its melting point filled in; supply it.
148 to 149 °C

Please look at this molecule and report its melting point: Cn1ncc(/C=C/C(=O)Nc2ccc(Cc3nc(C(=O)O)cs3)cc2)c1-c1ccc(F)cc1
226 to 227 °C

Look up melting point of CCCCOc1ccc(S(=O)(=O)C2(C(=O)OCC)CCN(Cc3ccc(F)cc3)CC2)cc1 and report it.
114 °C

Item CCOC(=O)C1(NS(=O)(=O)c2ccc3c(Cl)cnc(NC(=N)N)c3c2)CCC1 : provide melting point
165 to 169 °C

Origin of measurements: a melting point compilation (Tetko et al.; mined from patent text by program, amines drawn as free bases though some values may be those of a salt)
